Listed below: inhibition in vivo at 90 mg/kg values for each entry.
tested on: MDA-MB-231; assay: Antitumor activity against human MDA-MB-231 cells xenografted in BALB/c nu mouse assessed as tumor growth inhibition at 90 mg/kg, ip qd for 19 days relative to control; format: functional; conditions: Mus musculus, MDA-MB-231, ip, 456 h, route intraperitoneal, read-out: TGI
Please answer using a numeric value trailed by its unit.

[[record]]
smiles_string = "CC[C@H](C)[C@H](NC(=O)OC(C)(C)C)C(=O)N1Cc2cc(OCC(=O)NO)ccc2C[C@H]1C(=O)Nc1ccc(OC)cc1"
result = "40%"


-- ask Query for MDA-MB-231: what inhibition in vivo at 90 mg/kg does the record show for CC[C@H](C)[C@@H](CN1Cc2cc(OCC(=O)NO)ccc2C[C@H]1C(=O)Nc1ccc(OC)cc1)NC(=O)OC(C)(C)C ?
-- reply 55%

-- ask Query for MDA-MB-231: what inhibition in vivo at 90 mg/kg does the record show for CC[C@H](C)[C@H](NC(=O)CC(C)(C)C)C(=O)N1Cc2cc(OCC(=O)NO)ccc2C[C@H]1C(=O)Nc1ccc(OC)cc1 ?
-- reply 51%

-- ask Query for MDA-MB-231: what inhibition in vivo at 90 mg/kg does the record show for CC[C@H](C)[C@@H](CN1Cc2cc(OCC(=O)NO)ccc2C[C@H]1C(=O)Nc1ccc(OC)cc1)NC(=O)CC(C)(C)C ?
-- reply -9%

---

system: MDA-MB-231; experiment: Antiproliferative activity against human MDA-MB-231 cells after 48 hrs by MTT assay; assay type: functional, cell-based; conditions: MDA-MB-231, 48 h
measurement-label: IC50 (nM)
Dear colleague, please return just the value in nM, with no unit written.

-- ask Field request: IC50 | item: CC[C@H](C)[C@H](NC(=O)CC(C)(C)C)C(=O)N1Cc2cc(OCC(=O)NO)ccc2C[C@H]1C(=O)Nc1ccc(OC)cc1
-- reply 580
